Target: human plasma butyrylcholinesterase (BuChE) (Homo sapiens, UniProt P06276)
Construct: Plasma for determination of BuChE activity was obtained by centrifuging the blood; from tissue; host or cells: plasma of healthy human donors
Sequence (P06276 29-602): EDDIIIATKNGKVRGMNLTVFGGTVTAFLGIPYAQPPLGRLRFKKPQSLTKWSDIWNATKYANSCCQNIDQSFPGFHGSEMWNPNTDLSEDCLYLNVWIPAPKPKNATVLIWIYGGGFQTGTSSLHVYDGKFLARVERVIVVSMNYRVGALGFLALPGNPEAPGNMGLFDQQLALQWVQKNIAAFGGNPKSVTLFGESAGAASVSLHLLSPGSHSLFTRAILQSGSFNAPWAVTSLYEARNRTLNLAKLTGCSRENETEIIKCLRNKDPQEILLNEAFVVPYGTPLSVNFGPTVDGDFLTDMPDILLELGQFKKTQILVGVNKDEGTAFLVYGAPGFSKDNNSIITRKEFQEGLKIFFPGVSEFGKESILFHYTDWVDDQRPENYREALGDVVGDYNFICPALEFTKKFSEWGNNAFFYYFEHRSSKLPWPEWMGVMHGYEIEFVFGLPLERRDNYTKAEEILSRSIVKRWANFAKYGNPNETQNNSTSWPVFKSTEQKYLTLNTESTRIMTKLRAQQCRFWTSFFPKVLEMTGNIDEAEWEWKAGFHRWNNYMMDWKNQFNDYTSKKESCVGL
Assay: biochemical
Conditions: human plasma BuChE; mean ± SD of three independent experiments
MEASURE: IC50 (µM)
Give the quantity in µM, number only.

[
  {
    "COMPOUND": "CN(C)C(=N)N=C(N)NS(=O)(=O)c1ccc([N+](=O)[O-])cc1",
    "UNIT ABBREVIATION": "µM",
    "VALUE MEASURED": 561
  },
  {
    "COMPOUND": "CN(C)C(=N)N=C(N)NS(=O)(=O)c1ccccc1[N+](=O)[O-]",
    "UNIT ABBREVIATION": "µM",
    "VALUE MEASURED": 871
  },
  {
    "COMPOUND": "CCCCC(CC)CSNC(N)=NC(=N)N(C)C (centres unmarked)",
    "UNIT ABBREVIATION": "µM",
    "VALUE MEASURED": 335
  },
  {
    "COMPOUND": "CCCCCCSNC(N)=NC(=N)N(C)C",
    "UNIT ABBREVIATION": "µM",
    "VALUE MEASURED": 1880
  }
]

We next turn to a different compound, shown below.
Query string: State, in one line, measured IC50 of `CN(C)C(=N)N=C(N)NS(=O)(=O)c1ccc(C(F)(F)F)cc1[N+](=O)[O-]`
Result string: 686

###

Parameter: Vmax(i) BuChE. Scope: all listed entries.
Molecular target: human plasma butyrylcholinesterase (BuChE) (Homo sapiens)
Construct: Plasma for determination of BuChE activity was obtained by centrifuging the blood; from tissue; host or cells: plasma of healthy human donors
Assay: Kinetic parameters and type of BuChE inhibition (Hanes–Woolf)
Assay type: biochemical
Settings: B: inhibitor at 1/3 of IC50; mean ± SD

Worked cases, Vmax(i) BuChE given:
[
  {
    "COMPOUND": "CCCCCCSNC(N)=NC(=N)N(C)C",
    "Vmax(i) BuChE": "0.207 ± 0.015 A/min"
  },
  {
    "COMPOUND": "CCCCC(CC)CSNC(N)=NC(=N)N(C)C (centres unmarked)",
    "Vmax(i) BuChE": "0.182 ± 0.009 A/min"
  },
  {
    "COMPOUND": "CN(C)C(=N)N=C(N)NS(=O)(=O)c1ccc(C(F)(F)F)cc1[N+](=O)[O-]",
    "Vmax(i) BuChE": "0.242 ± 0.012 A/min"
  },
  {
    "COMPOUND": "CN(C)C(=N)N=C(N)NS(=O)(=O)c1ccccc1[N+](=O)[O-]",
    "Vmax(i) BuChE": "0.229 ± 0.019 A/min"
  }
]

Alright, here's another compound for you.
Query string: Identify the reported Vmax(i) BuChE for the following entry. `CN(C)C(=N)N=C(N)NS(=O)(=O)c1ccc([N+](=O)[O-])cc1`
Result string: 0.208 ± 0.005 A/min

###

Biological target: human plasma butyrylcholinesterase (BuChE) (Homo sapiens, UniProt P06276)
Construct: Plasma for determination of BuChE activity was obtained by centrifuging the blood; from tissue; host or cells: plasma of healthy human donors
Experiment: Kinetic parameters and type of BuChE inhibition (Hanes–Woolf)
Type: biochemical
Conditions: B: inhibitor at 1/3 of IC50
MEASURE: vmax BuChE, mean ± SD (mA/min)
Report as a plain number; the unit mA/min is understood.

[
  {
    "COMPOUND": "CN(C)C(=N)N=C(N)NS(=O)(=O)c1ccccc1[N+](=O)[O-]",
    "UNIT ABBREVIATION": "mA/min",
    "vmax BuChE, mean ± SD": 229.87
  },
  {
    "COMPOUND": "CN(C)C(=N)N=C(N)NS(=O)(=O)c1ccc([N+](=O)[O-])cc1",
    "UNIT ABBREVIATION": "mA/min",
    "vmax BuChE, mean ± SD": 207.61
  },
  {
    "COMPOUND": "CN(C)C(=N)N=C(N)NS(=O)(=O)c1ccc(C(F)(F)F)cc1[N+](=O)[O-]",
    "UNIT ABBREVIATION": "mA/min",
    "vmax BuChE, mean ± SD": 242.44
  },
  {
    "COMPOUND": "CCCCCCSNC(N)=NC(=N)N(C)C",
    "UNIT ABBREVIATION": "mA/min",
    "vmax BuChE, mean ± SD": 206.94
  }
]

Kindly consider the entry below.
Query string: Consider the compound CCCCC(CC)CSNC(N)=NC(=N)N(C)C (centres unmarked) . State its measured vmax BuChE, mean ± SD.
Result string: 182.27

Values compiled from paper PMC6161601.
